target: GST-tagged human ROCK1 catalytic domain 1-477 (Homo sapiens (Human), UniProt Q13464); assay: Inhibition of Rho-associated protein kinase isoform 1 (LANCE Ultra ULight-CREBtide FRET kinase assay); format: biochemical; conditions: 30 μM was the highest concentration analyzed
Sequence (Q13464 1-477): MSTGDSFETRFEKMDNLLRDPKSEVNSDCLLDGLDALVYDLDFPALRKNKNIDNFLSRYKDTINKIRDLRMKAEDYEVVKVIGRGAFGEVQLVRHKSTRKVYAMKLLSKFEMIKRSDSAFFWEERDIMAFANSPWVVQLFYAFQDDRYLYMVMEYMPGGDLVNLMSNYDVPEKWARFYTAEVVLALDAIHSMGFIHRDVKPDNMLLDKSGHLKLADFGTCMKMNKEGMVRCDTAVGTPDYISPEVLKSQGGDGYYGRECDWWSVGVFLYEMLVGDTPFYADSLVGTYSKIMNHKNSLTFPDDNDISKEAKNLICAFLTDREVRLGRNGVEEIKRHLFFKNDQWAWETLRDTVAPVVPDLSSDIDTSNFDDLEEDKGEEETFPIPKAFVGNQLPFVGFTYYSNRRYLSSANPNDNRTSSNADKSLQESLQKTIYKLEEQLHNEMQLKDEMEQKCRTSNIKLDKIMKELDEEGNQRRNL
property-name: IC50

[
  {
    "compound": "CC(=O)Nc1ccc(S(C)(=O)=O)c(-c2nnc(Nc3ccc4[nH]ncc4c3Cl)s2)c1 [Example 48E]",
    "recorded-result": "15 to 30 µM"
  }
]

stdin: Annotate the compound O=C(Cc1ncc[nH]1)Nc1cccc(-c2nnc(Nc3ccc4[nH]ncc4c3Cl)s2)c1 [Example 35BD] with its measured IC50.
stdout: > 30 µM

stdin: Supply recorded IC50 for CC(C)(C)CC(=O)Nc1cccc(-c2nnc(Nc3ccc4[nH]ncc4c3Cl)s2)c1 [Example 35M] here.
stdout: 1 to 15 µM

stdin: Annotate the compound Cc1cnn(CC(=O)Nc2cccc(-c3nnc(Nc4ccc5[nH]ncc5c4Cl)s3)c2)c1 [Example 35BI] with its measured IC50.
stdout: 1 to 15 µM

stdin: Fill in reported IC50 for this entry: O=C(Nc1cccc(-c2nnc(Nc3ccc4[nH]ncc4c3Cl)s2)c1)N1CCNCC1 [Example 35T]
stdout: < 1 µM

stdin: Recall and state the measured IC50 for CC(C)(C)C(=O)Nc1cccc(-c2nnc(Nc3ccc4[nH]ncc4c3Cl)s2)c1 [Example 35O] .
stdout: < 1 µM
